Consider the following molecules and their measured Relative activity value readings.
target: human GPR40 (Homo sapiens)
Construct: expressed in transfected cells; host or cells: CHO cell line stably expressing human GPR40
Sequence (O14842 whole entry): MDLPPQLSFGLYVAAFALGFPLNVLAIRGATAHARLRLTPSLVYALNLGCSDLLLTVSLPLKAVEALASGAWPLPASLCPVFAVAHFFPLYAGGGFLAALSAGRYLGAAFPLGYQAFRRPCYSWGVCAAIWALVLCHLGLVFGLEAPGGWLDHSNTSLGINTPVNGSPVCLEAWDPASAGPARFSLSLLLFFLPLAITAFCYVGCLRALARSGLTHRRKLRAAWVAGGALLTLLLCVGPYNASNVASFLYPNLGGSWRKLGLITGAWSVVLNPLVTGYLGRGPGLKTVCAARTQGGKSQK
assay-notes: Receptor function modulating action (agonist action) against human-derived GPR40: intracellular calcium change by FLIPR in CHO cells stably expressing human GPR40
Format: cell-based
condition-parameters: agonist activity of each compound at 1 μM, relative to the activity of 10 μM γ-linolenic acid as 100%, CHO cell line stably expressing human GPR40

{"molecule": "CCOCCOc1cc(C)c(-c2cccc(COc3ccc(C4CC4C(=O)O)cc3)c2)c(C)c1 (stereo not drawn)", "measure-unit": "%", "Relative activity value": 111}
{"molecule": "O=C(O)C1CC1c1ccc(OCc2cccc(Oc3ccccc3)c2)cc1 (stereo not drawn)", "measure-unit": "%", "Relative activity value": 109}
{"molecule": "CCCN(Cc1ccc(COc2ccc(C3CC3C(=O)O)cc2)cc1)c1nc(-c2ccc(C(F)(F)F)cc2)cs1 (stereo not drawn)", "measure-unit": "%", "Relative activity value": 114}
